procedure.details: Oral bioavailability in the Sprague Dawley rats; (n = 3)
Assay type: ADME, organism-based
applied.conditions: rat, in vivo
property.label: bioavailability (%)

1) CNC(=O)c1ccccc1-c1ccc([C@@H](C)Nc2nccc(C)c2NC(=O)CC(F)(F)F)cc1 | 25
2) CNC(=O)c1ccccc1-c1ccc(CNc2nccc(C)c2NC(=O)CC(F)(F)F)cc1 | 79
3) CNC(=O)c1ccccc1-c1ccc(CNc2ncccc2NC(=O)CC(F)(F)F)cc1 | 95
4) COC(=O)c1ccccc1-c1ccc(CNc2ncccc2NC(=O)CC#N)cc1 | 28
5) CCCCC(=O)Nc1cccnc1NCc1ccc(-c2ccccc2C(=O)OC)cc1 | 2
6) COC(=O)c1ccccc1-c1ccc([C@@H](C)Nc2nccc(C)c2NC(=O)CC(F)(F)F)cc1 | 17
7) COC(=O)c1ccccc1-c1ccc(CNc2ncccc2NC(=O)CC(F)(F)F)cc1 | 9
8) COC(=O)c1ccccc1-c1ccc([C@@H](C)Nc2nccc(C)c2NC(=O)CC#N)cc1 | 27
9) CCCC(=O)Nc1cccnc1NCc1ccc(-c2ccccc2C(=O)OC)cc1 | 15
10) COC(=O)c1ccccc1-c1ccc(CNc2nccc(C)c2NC(=O)CC(F)(F)F)cc1 | 40
11) Cc1ccnc(NCc2ccc(-c3ccccc3C(=O)O)cc2)c1NC(=O)CC#N | 19

====

procedure.details: Clearance in the Sprague Dawley rats; (n = 3)
Format: ADME, organism-based
applied.conditions: rat, in vivo
property.label: clearance (L/h/kg)

1. CNC(=O)c1ccccc1-c1ccc(CNc2nccc(C)c2NC(=O)CC(F)(F)F)cc1 | 1.8
2. Cc1ccnc(NCc2ccc(-c3ccccc3C(=O)O)cc2)c1NC(=O)CC#N | 0.258
3. CNC(=O)c1ccccc1-c1ccc(CNc2ncccc2NC(=O)CC(F)(F)F)cc1 | 0.9
4. CCCCC(=O)Nc1cccnc1NCc1ccc(-c2ccccc2C(=O)OC)cc1 | 1.8
5. COC(=O)c1ccccc1-c1ccc([C@@H](C)Nc2nccc(C)c2NC(=O)CC(F)(F)F)cc1 | 0.48
6. COC(=O)c1ccccc1-c1ccc(CNc2ncccc2NC(=O)CC#N)cc1 | 1.08
7. COC(=O)c1ccccc1-c1ccc(CNc2ncccc2NC(=O)CC(F)(F)F)cc1 | 2.1
8. COC(=O)c1ccccc1-c1ccc([C@@H](C)Nc2nccc(C)c2NC(=O)CC#N)cc1 | 1.11
9. CCCC(=O)Nc1cccnc1NCc1ccc(-c2ccccc2C(=O)OC)cc1 | 1.38
10. COC(=O)c1ccccc1-c1ccc(CNc2nccc(C)c2NC(=O)CC(F)(F)F)cc1 | 0.84
11. CNC(=O)c1ccccc1-c1ccc([C@@H](C)Nc2nccc(C)c2NC(=O)CC(F)(F)F)cc1 | 1.86

====

Sequence of the target: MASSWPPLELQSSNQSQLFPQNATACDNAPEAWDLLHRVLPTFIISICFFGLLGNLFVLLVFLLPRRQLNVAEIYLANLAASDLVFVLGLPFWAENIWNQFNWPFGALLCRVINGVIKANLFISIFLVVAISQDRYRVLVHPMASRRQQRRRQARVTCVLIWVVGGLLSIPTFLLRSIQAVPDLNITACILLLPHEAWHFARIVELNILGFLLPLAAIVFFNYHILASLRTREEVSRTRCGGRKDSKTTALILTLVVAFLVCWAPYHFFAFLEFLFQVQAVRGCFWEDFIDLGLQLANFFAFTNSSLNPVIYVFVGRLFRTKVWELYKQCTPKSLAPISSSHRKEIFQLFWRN
Lab note: cut-off is 10 nM. Strictly less in Ki is True. Exactly 10 nM or more is False.

1) CCC(=O)Nc1cccnc1NCc1ccc(-c2ccccc2C(=O)OC)cc1 | False
2) CNC(=O)c1ccccc1-c1ccc(CNc2ncccc2NC(=O)CC(F)(F)F)cc1 | False
3) Cc1ccnc(NCc2ccc(-c3ccccc3C(=O)O)cc2)c1NC(=O)CC#N | False
4) CNC(=O)c1ccccc1-c1ccc(CNc2nccc(C)c2NC(=O)CC(F)(F)F)cc1 | False
5) COC(=O)c1ccccc1-c1ccc([C@@H](C)Nc2nccc(C)c2NC(=O)CC(F)(F)F)cc1 | True
6) COC(=O)c1ccccc1-c1ccc(CNc2nccc(C)c2NC(=O)CC(F)(F)F)cc1 | True
7) COC(=O)c1ccccc1-c1ccc(CNc2ncccc2NC(=O)CN(C)C)cc1 | False
